system: T1, ADAR1 Zα (Homo sapiens, UniProt P55265 139-202)
T1 sequence: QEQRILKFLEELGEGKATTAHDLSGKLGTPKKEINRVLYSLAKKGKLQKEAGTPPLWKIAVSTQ
procedure-text: MST; 20 mM NaPi pH 6.4, 100 mM KCl, 1 mM DTT, 0.5 mM EDTA (LiCl replaces KCl where noted); ITC 35 C; MST 25 C with 20 nM protein (labelling without DTT); competition
recorded-conditions: protein: recombinant; tags: N-terminal 6xHis, thrombin site, T7 tag; chain copies: 2; parallel G4
Parameter: Kd. Scope: all listed entries.
metric-name: Kd (nM)

[[record]]
binder = "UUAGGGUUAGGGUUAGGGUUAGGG (structured_RNA) [TERRA-GQRNA]"
recorded_measurement = 19.3

[[record]]
binder = "GGGAGGGCGGGAGGG (structured_RNA) [ALU-GQRNA]"
recorded_measurement = 116

